In this section we review reported pIC50 values for a set of compounds.
# Experimental Target: recombinant human GST-SYK (Homo sapiens)
# Construct: purchased Carna Biosciences 08-176
# Procedure Details: Homogeneous Time-Resolved Fluorescence (HTRF) assay for the recombinant human Syk enzyme
# Assay type: biochemical
# Run Conditions: HTRF assay, recombinant human GST-SYK; IC50 given as class symbols; read-out: rhSYK Activity
pIC50: −log10 of the molar value.

Cc1cc(Nc2nccc(C(F)(F)F)n2)cc(-c2ccc(N[C@@H](Cc3ccccc3)C(=O)O)nc2)c1 [Example 7.97]; > 7.00
Cc1cc(Nc2nccc(C(F)(F)F)n2)cc(-c2cncc(C3(O)COC(C)(C)OC3)c2)c1; 6.00 to 7.00
Cc1cc(Nc2nccc(C(F)(F)F)n2)cc(-c2ccc(N[C@H](C(=O)O)C(C)(C)C)nc2)c1; > 7.00
Cc1cc(Nc2nccc(C(F)(F)F)n2)cc(-c2ccnc(N3CC(C)NC(C)C3)c2)c1 (stereo not shown) [Example 15.71]; > 7.00
CC(=O)C(C)(O)c1cncc(-c2cc(C)cc(Nc3nccc(C(F)(F)F)n3)c2)c1 (stereo not shown); > 7.00
Cc1cc(Nc2nccc(C(F)(F)F)n2)cc(-c2ccnc(N3CCN(S(C)(=O)=O)CC3)c2)c1; 6.00 to 7.00

Let us examine a further case.
Query: Please give measured pIC50 of the following entry: COC(=O)CS(=O)(=O)Nc1ccc(-c2cc(C)cc(Nc3nccc(C(F)(F)F)n3)c2)cn1
Result: > 7.00
